Source listed as ChEMBL document CHEMBL3045585.

- Test system: Aspergillus niger
- assay_summary: Antifungal activity against Aspergillus niger NCIM 945 by serial dilution method
- Type: functional
recorded_metric: MIC (mg/L)

a: Nc1ccccc1-c1nnc(SCc2ccccc2)n1/N=C/c1ccc(Cl)cc1
b: COc1ccc(/C=N/n2c(SCc3ccccc3)nnc2-c2ccncc2)cc1
Which of these two has the smaller recorded MIC: a or b ? Please reply using the label of the selected record.
b

====

- Test system: Penicillium chrysogenum
- assay_summary: Antifungal activity against Penicillium chrysogenum NCIM 725 by serial dilution method
- Assay type: functional
recorded_metric: MIC (µg/mL)

P: CN(C)c1ccc(/C=N/n2c(SCc3ccccc3)nnc2-c2ccccc2N)cc1
Q: Nc1ccccc1-c1nnc(SCc2ccccc2)n1/N=C/c1ccc(Cl)cc1
Higher MIC: P or Q ? Please reply using the label of the selected record.
P
(P: 250 µg/mL, Q: 31 µg/mL)
